target: NCX1.7 (Homo sapiens); assay: excised inside-out patch-clamp, recombinant forward-mode; assay type: biochemical; settings: read-out: IC50, FM peak current NCX1.7; peak current
PROPERTY NAME: IC50
Your reply should be a number followed by the unit it is expressed in.

The value of IC50 measured for the compound N=C(N)SCCc1ccc(OCc2ccc([N+](=O)[O-])cc2)cc1 [KB-R7943] turned out to be 4.71 µM
